// data source = the supplement of paper PMC11451515

System: SEM cells
Test: cell viability relative to DMSO control; higher = less cytotoxic
Details: RPMI 5 mM glucose + 10% dialyzed FBS; 48 h; 0.00234 µM
Reported Metric: cell viability (%)
Please give a number only; it is taken to be in %.

Worked cases, answers included:
* CCC[C@H](N[C@@H](C)C(=O)N1[C@H](C(=O)O)C[C@@H]2CCCC[C@@H]21)C(=O)OCC | 105
* CCOC(=O)N1CCN(/[N+]([O-])=N/Oc2ccc([N+](=O)[O-])cc2[N+](=O)[O-])CC1 | 91.6

Given the entry Cc1cccc(C)c1OCC(=O)N[C@@H](Cc1ccccc1)[C@@H](O)C[C@H](Cc1ccccc1)NC(=O)[C@H](C(C)C)N1CCCNC1=O , report its measured cell viability.
101

// same read-out, input: C\C1=C\N([C@H]2C[C@H](N=[N+]=[N-])[C@@H](CO)O2)C(=O)NC1=O
83.9

How about this compound: CN1\C(=C(\O)C2=C(C=CS2)[S+]1([O-])=O)C(=O)NC3=CC=CC=N3
95.5

How about C[C@@]12O[C@@H](C[C@]1(O)CO)n1c3ccccc3c3c4c(c5c6ccccc6n2c5c31)CNC4=O ?
111

Next compound: CC1=CC=CC=C1CN2C(=O)C/3=C(/CCN(CC4=CC=CC=C4)C3)N\5CC\N=C25
121

Try CC(C)[C@@H](C[S+](=O)([O-])C(C)C)N1C(=O)[C@@](C)(CC(=O)O)C[C@H](c2cccc(Cl)c2)[C@H]1c1ccc(Cl)cc1 next.
109

Try this compound next: CC(=O)OCC(=O)[C@@]12\N=C(C)/O[C@@H]1C[C@H]3[C@@H]4CCC/5=C/C(=O)/C=C\[C@]5(C)[C@H]4[C@@H](O)C[C@]23C
95.2

What do you get for NC(CO)(CO)CCc1ccc(Sc2cccc(OCc3ccccc3)c2)cc1Cl ?
105

Same for C\C1=C\C(=O)C2=C(C=CC=C2)C1=O
102

Another: CC(=O)NC(CS)C(=O)O (centres undefined)
57.8

Same for Oc1ccc(/C=C/c2cc(O)cc(O)c2)cc1
115

Now try C[C@@H](O)[C@@H]1[C@H]2[C@@H](C)\C(=C(/N2C1=O)C(=O)OCOC(=O)C(C)(C)C)SC3CN(C3)/C4=N/CCS4 .
109

Now this one: CCN(CC)CCCCNc1nc2cc(Cl)c(Cl)cc2nc1-c1ccc(-c2cccs2)s1
121

Param item: COc1cc2c(Oc3ccc(NC(=O)C4(C(=O)Nc5ccc(F)cc5)CC4)cc3F)ccnc2cc1OCCCN1CCOCC1
28.5

And then CCOC(=O)[C@H](CCc1ccccc1)N[C@@H](C)C(=O)N1CCC[C@H]1C(=O)O , what is it?
105

Moving on to the next compound: C[N+]1(C)[C@@H]2C[C@@H](OC(=O)[C@H](CO)c3ccccc3)C[C@H]1[C@@H]1O[C@@H]12.[Br-]
87.2

Now the compound CC1(C)OC2CC3C4CC(F)C/5=C/C(=O)/C=C\C5(C)C4C(O)CC3(C)[C@@]2(O1)C(=O)CO (some centres undefined)
95.4

###

Tested on: P12-Ichikawa
Assay: cell viability relative to DMSO control; higher = less cytotoxic
Conditions: HPLM + 10% dialyzed FBS; 48 h; 15.4 µM
Overview of recorded cell viability for various compounds
Answer format: numeric, % implied, no suffix.

• OC(=O)\C1=C\N(C2=CC=C(F)C=C2)C3=C(C=C(F)C(=C3)N4CCNCC4)C1=O = 103

Notebook entry, P12-Ichikawa assay: cell viability of C[N+]1(C)[C@@H]2C[C@@H](OC(=O)[C@H](CO)c3ccccc3)C[C@H]1[C@@H]1O[C@@H]12.[Br-] = ?
106

# repeat for CCCCCCCc1ccc(CCc2cccc(O)c2C(=O)O)cc1
104

Now the same for CCc1c(C(=O)C(N)=O)c2c(OCC(=O)O)cccc2n1Cc1ccccc1
107

Input O=C(NC[C@H]1CN(c2ccc(N3CCOCC3=O)cc2)C(=O)O1)c1ccc(Cl)s1
13.4

Same for CC(C)Oc1cc(Nc2nc(N[C@@H](C)c3ccc(F)cn3)ncc2Cl)n[nH]1
29.6

One more compound: O=C(/C=C/c1cccc([S+](=O)([O-])Nc2ccccc2)c1)NO
7.58

What about this compound? OC[C@H](Cc1ccccc1)Nc1nc(Oc2ccc3c(c2)CCC3)nc2c1ncn2Cc1ccc(-c2ccccc2)cc1
82.7

###

Tested on: NOMO1
Test: cell viability relative to DMSO control; higher = less cytotoxic
Settings: HPLM + 10% dialyzed FBS; 48 h; 0.569 µM
The entries below are paired with their reported cell viability.
Write it as a number; the unit % goes unstated.

Example molecules with recorded cell viability:
* NC1=NC=C(C=C1)C2=CC=C3N=CC\4=C(N(C(=O)\C=C4)C5=CC(=CC=C5)C(F)(F)F)C3=C2 | 24.1
* C[C@@H](O)[C@@H]1[C@H]2[C@@H](C)\C(=C(/N2C1=O)C(=O)OCOC(=O)C(C)(C)C)SC3CN(C3)/C4=N/CCS4 | 105
* CC(C)Oc1cc(Nc2nc(N[C@@H](C)c3ccc(F)cn3)ncc2Cl)n[nH]1 | 127
* CC(C)[C@@H](C[S+](=O)([O-])C(C)C)N1C(=O)[C@@](C)(CC(=O)O)C[C@H](c2cccc(Cl)c2)[C@H]1c1ccc(Cl)cc1 | 36.4
* Oc1ccc(/C=C/c2cc(O)cc(O)c2)cc1 | 92.4

Which value of cell viability has been reported for Oc1ccc(C2CCN(c3ccnc4ccccc34)CC2)cc1O in the records?
113

Record: Cc1ncc(OC[C@@]2(c3cccc(F)c3)C[C@H]2C(=O)Nc2ccc(F)cn2)c(C)n1
117

How about this molecule: CC[C@H]1/C=C\C=C/C[C@@H](C)[C@H](O)[C@@](C)(O)C(=O)[C@@H](C)[C@H](O)[C@@H](C)C(=O)[C@@H](C)[C@H](O)[C@@H](C)/C=C/C(=O)O[C@@H]2[C@H](C)[C@H](CC1)O[C@]1(CC[C@H](C)[C@H](C[C@@H](C)O)O1)[C@H]2C
108

Further, for c1cc(CN2CCCNCCNCCCNCC2)ccc1CN1CCCNCCNCCCNCC1 ?
102

###

Test system: SEM cells
Assay: cell viability relative to DMSO control; higher = less cytotoxic
Settings: RPMI 5 mM glucose + 10% FBS; 48 h; 0.000781 µM
Reported Metric: cell viability

Please review the entries below; each comes with its answer.
- C=CC1=C(C(=O)O)N2C(=O)[C@@H](NC(=O)/C(=N\O)c3csc(N)n3)[C@H]2SC1: 87.5%
- C[C@@H]1COCCN1C\2=C\C(=O)N\3CC[C@H](N(CC4=CN=CC(=C4)Cl)C3=N2)C(F)(F)F: 109%
- NC(=O)c1ncn([C@@H]2O[C@H](CO)[C@@H](O)[C@H]2O)n1: 105%

Item CC(C)Oc1cc(Nc2nc(N[C@@H](C)c3ccc(F)cn3)ncc2Cl)n[nH]1 has what recorded cell viability?
109%

Check Cc1cc(Nc2nc(N[C@@H](C)c3ncc(F)cn3)ncc2Cl)n[nH]1 too.
120%

What do you get for CCC(=O)OCC(=O)[C@@]1(OC(=O)CC)[C@@H](C)C[C@H]2[C@@H]3CCC4=CC(=O)C=C[C@]4(C)[C@@]3(F)[C@@H](O)C[C@@]21C ?
104%

Then this compound: O=C(/C=C/c1c(C(=O)[O-])[nH]c2cc(Cl)cc(Cl)c12)Nc1ccccc1
110%

Then Cc1cccc(C)c1OCC(=O)N[C@@H](Cc1ccccc1)[C@@H](O)C[C@H](Cc1ccccc1)NC(=O)[C@H](C(C)C)N1CCCNC1=O ?
97.7%

###

Tested on: P12-Ichikawa
Experiment: cell viability relative to DMSO control; higher = less cytotoxic
Settings: RPMI 5 mM glucose + 10% dialyzed FBS; 48 h; 0.00702 µM
The entries below are paired with their reported cell viability.
Field format: number, assumed %, no unit text.

# count of solved cases: 4
* CC(=O)N1CCN(c2ccc(OCc3nn(C)c(C)c3-c3cccc4c(CCCOc5cccc6ccccc56)c(C(=O)O)n(Cc5cccnc5)c34)cc2)CC1 | 121
* CC1(C)C(=O)N(CCN2CCC(C(=O)c3ccc(F)cc3)CC2)c2ccccc21 | 118
* OC(=O)\C1=C\N(C2=CC=C(F)C=C2)C3=C(C=C(F)C(=C3)N4CCNCC4)C1=O | 115
* NC(=O)c1ncn([C@@H]2O[C@H](CO)[C@@H](O)[C@H]2O)n1 | 123

Report cell viability for CC1(C)CCC(=C(CN2CCN(CC2)C3=CC=C(C=C3)C(=O)N[S+]([O-])(=O)C4=CC(=C(N[C@H](CCN5CCOCC5)CSC6=CC=CC=C6)C=C4)[S+]([O-])(=O)C(F)(F)F)\C1)/C7=CC=C(Cl)C=C7 please.
127
